testName: liver-stage malaria parasite load reduction – cell-based, known kinase inhibitor set, luminescence, hepatoma host viability (AID 624392);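 further: infected cells incubated roughly two days before readout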
details: Plasmodium liver stage in hepatoma cells, luciferase luminescence, concentration not given here; active compounds read low
Catalogue of parasite % of control readings, one per entry.
# number only, unit % dropped from output

Consider the reported parasite % of control for these compounds:
compoundSmiles	measurementName	measValue
Cc1ccc([N+](=O)[O-])cc1S(=O)(=O)N(C)N=Cc1c[nH]c2ccc(Br)c[n+]12	parasite % of control	3.49
CCS(=O)(=O)c1ccc(OC)c(Nc2ncc(-c3cccc(C(C)=O)c3)o2)c1	parasite % of control	48.2
O=C(Nc1ccc(-c2csc(Nc3ccccc3)n2)cc1)c1cccc(C(F)(F)F)c1	parasite % of control	99.4
CCN1CCN(Cc2ccc(NC(=O)c3ccc(C)c(C=Cc4cnc(Nc5cc(N6CCNCC6)nc(C)n5)cn4)c3)cc2C(F)(F)F)CC1	parasite % of control	369

query: Entry under review: `Cc1ccc(C(=O)Nc2cccc(C(F)(F)F)c2)cc1NC(=O)c1csc(-c2ccncc2)n1` . Reported parasite % of control?
result: 76.3

query: Entry under review: `Nc1cnc(CNc2ccccc2Cl)cn1` . Reported parasite % of control?
result: 136

query: Entry under review: `COc1ccc(-c2cc(C(=O)Nc3cc(OC)cc(C(=O)Nc4cccc(C(F)(F)F)c4)c3)[nH]n2)cc1` . Reported parasite % of control?
result: 36.9

query: Entry under review: `CC(C)n1cnc2c(Nc3cccc(Cl)c3)nc(NCCCO)nc21` . Reported parasite % of control?
result: 206

query: Entry under review: `NC1=NC(=O)C(=Cc2cccc(-c3ccc(S(N)(=O)=O)cc3)c2)S1` . Reported parasite % of control?
result: 377

query: Entry under review: `Cc1ccc(-c2c(C(=O)CCl)n(CCO)c3ncnc(N)c23)cc1` . Reported parasite % of control?
result: 86.5

----------
Catalogue of z-score readings, one per entry.
testName: MELAS cybrid and Rieske KO viability enhancers – cell-based, MELAS cybrids, Rieske KO mouse fibroblasts, CellTiter-Glo, primary screen (AID 1508586);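 further: z relative to plate mean and SD of compound and empty wells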
details: MELAS cybrid survival, low glucose, CellTiter-Glo 48 h; active compounds read high
Please give only the number in your answer, with no unit.

Consider the reported z-score for these molecules:
molecule	measValue
COC(=O)c1ccc(=O)c2nc3/c(=C/O)c(O)cc(=O)c3[nH]c12	0.379
Nc1nc2c(ncn2C2OC(CO)C(O)C2O)c(=O)[nH]1 (centres undefined)	-0.357
CC(=O)[C@H]1CC[C@H]2[C@@H]3C=CC4=CC(=O)CC[C@@]4(C)[C@H]3CC[C@]12C	-0.0223
CC(CCC(=O)O)C1CC[C@H]2[C@@H]3CC(O)[C@@H]4CC(O)CC[C@]4(C)[C@@H]3CC[C@]12C (some centres undefined)	-0.299
CC(=O)O[C@@]1(C(C)=O)CC[C@H]2[C@@H]3CCC4=CC(=O)CCC4=C3C(c3ccc(N(C)C)cc3)C[C@@]21C (some centres undefined)	-0.373
O=C1CN(c2ncnc3nc[nH]c23)CCN1CCc1ccccc1	-0.834
C=C1CCC(O)CC1=CC=C1CCC[C@]2(C)C(C(C)CCCC(C)C)CC[C@@H]12 (some centres undefined)	-0.279
NCc1ccccc1CC(=O)N[C@@H]1C(=O)N2C(C(=O)O)=C(CSc3nnnn3CC(=O)O)CS[C@H]12	0.404

Turning to the following molecule.
query: Entry under review: COC1C(O)CC(=O)OC(C)CC=CC=CC(OC2CCC(N(C)C)C(C)O2)C(C)CC(CC=O)C1OC1OC(C)C(OC2C[C@](C)(O)C(O)C(C)O2)C(N(C)C)C1O (some centres undefined) . Reported z-score?
result: -0.212
